# System: Staphylococcus aureus
# method: Antibacterial activity against methicillin-resistant Staphylococcus aureus ATCC 33591 after 48 hrs by agar dilution method
# Assay type: functional
# condition.description: ATCC 33591, 48 h
endpoint.name: MIC

[[record]]
compound = "CC1(C)C(=O)CC[C@]2(C)C3=CC=C4[C@@H]5C[C@@](C)(C(=O)O)CC[C@]5(C)CC[C@@]4(C)[C@]3(C)CC[C@@H]12"
target_under_test = "Staphylococcus aureus"
reported = "> 50 µg/mL"

[[record]]
compound = "C=C(C)[C@@H]1CC[C@]2(C)[C@H](CC=C3[C@@H]4C[C@@](C)(C(=O)O)CC[C@]4(C)CC[C@]32C)[C@@]1(C)CCC(=O)O [KOETJAPIC ACID]"
target_under_test = "Staphylococcus aureus"
reported = "12.5 µg/mL"

[[record]]
compound = "CO[C@@H]1C=C2[C@@H]3C[C@@](C)(C(=O)O)CC[C@]3(C)CC[C@@]2(C)[C@]2(C)CC[C@H]3C(C)(C)C(=O)CC[C@]3(C)[C@@H]12"
target_under_test = "Staphylococcus aureus"
reported = "> 10 µg/mL"

[[record]]
compound = "C=C(C)[C@@H]1CC[C@]2(C)[C@H](CC=C3[C@@H]4C[C@](C)(C(=O)O)CC[C@]4(C)CC[C@]32C)[C@@]1(C)CCC(=O)O"
target_under_test = "Staphylococcus aureus"
reported = "> 6.25 µg/mL"

[[record]]
compound = "CCO[C@@H]1C=C2[C@@H]3C[C@@](C)(C(=O)O)CC[C@]3(C)CC[C@@]2(C)[C@]2(C)CC[C@H]3C(C)(C)C(=O)CC[C@]3(C)[C@@H]12"
target_under_test = "Staphylococcus aureus"
reported = "50 µg/mL"

[[record]]
compound = "CC1(C)C(=O)CC[C@]2(C)[C@H]3[C@H](O)C=C4[C@@H]5C[C@@](C)(C(=O)O)CC[C@]5(C)CC[C@@]4(C)[C@]3(C)CC[C@@H]12"
target_under_test = "Staphylococcus aureus"
reported = "> 6.25 µg/mL"


* * *

Here the recorded pIC50 is given for each entry.
# method: Toxicity against rat neonatal brain microglia cells assessed as phorbol-12-myristate-13-acetate-stimulated LDH release
# Type: cell-based
pIC50: −log10 of the molar value.
endpoint.name: pIC50

[[record]]
sample_smiles = "CC1(C)C(=O)CC[C@]2(C)[C@H]3[C@H](O)C=C4[C@@H]5C[C@@](C)(C(=O)O)CC[C@]5(C)CC[C@@]4(C)[C@]3(C)CC[C@@H]12"
endpoint_name = "pIC50"
reported = "< 6.00"

[[record]]
sample_smiles = "C=C(C)[C@@H]1CC[C@]2(C)[C@H](CC=C3[C@@H]4C[C@](C)(C(=O)O)CC[C@]4(C)CC[C@]32C)[C@@]1(C)CCC(=O)O"
endpoint_name = "pIC50"
reported = "< 6.00"

[[record]]
sample_smiles = "CO[C@@H]1C=C2[C@@H]3C[C@@](C)(C(=O)O)CC[C@]3(C)CC[C@@]2(C)[C@]2(C)CC[C@H]3C(C)(C)C(=O)CC[C@]3(C)[C@@H]12"
endpoint_name = "pIC50"
reported = "< 4.52"

[[record]]
sample_smiles = "CC1(C)C(=O)CC[C@]2(C)C3=CC=C4[C@@H]5C[C@@](C)(C(=O)O)CC[C@]5(C)CC[C@@]4(C)[C@]3(C)CC[C@@H]12"
endpoint_name = "pIC50"
reported = "< 4.52"

[[record]]
sample_smiles = "CC1(C)C(=O)CC[C@]2(C)[C@H]3C(=O)C=C4[C@@H]5C[C@@](C)(C(=O)O)CC[C@]5(C)CC[C@@]4(C)[C@]3(C)CC[C@@H]12"
endpoint_name = "pIC50"
reported = "< 5.00"

